# protocol-details: Equilibrium solubility in four media with XRPD of the solids
# Assay type: physicochemical
# setup-conditions: fasted state simulated intestinal fluid (FaSSIF), 37 °C, pH 6.5, fassif, thermodynamic from solid, FaSSIF (pH 6.5), 200 rpm, 24 h
# From the text: […]
assay-metric: solubility at 24 h (µg/mL)
One number for each entry, in µg/mL.

Problem: Using known records, supply solubility at 24 h for COc1cc(N2CCC3(CCN(C)CC3)CC2)ccc1Nc1ncc(Cl)c(Nc2ccccc2P(C)(C)=O)n1 [Crystal form A, reference compound]
Result: 4560

* * *

# protocol-details: Equilibrium solubility in four media with XRPD of the solids
# Assay type: physicochemical
# setup-conditions: water, 37 °C, thermodynamic from solid, 200 rpm, 24 h
assay-metric: solubility at 24 h

Problem: Complete the entry with solubility at 24 h for COc1cc(N2CCC3(CCN(C)CC3)CC2)ccc1Nc1ncc(Cl)c(Nc2ccccc2P(C)(C)=O)n1 [Crystal form A, reference compound]
Result: 40 µg/mL

Ref: patent US12606578B2
